assayEndpoint: pKi
By convention, pKi is the negative base-10 log of a molar concentration.

Tested on CgGal11A KIX domain (Candida glabrata): N#CCC(=O)NNC(=S)Nc1ccc(Cl)c(Cl)c1 . Observed pKi: 4.74

Reference source: patent US11136291B2
